system: CHO; assay: % viability of CHO cells (MTT); higher = less toxic; conditions: 2 µM; 48 h
Parameter % viability of CHO cells: see the listing below.
Include the unit after the number when you answer.

Would you please look over these solved cases?
compound | assayed.system | % viability of CHO cells
CC(C)Oc1cccc(NC(=O)c2ccccc2C(F)(F)F)c1 | CHO | 88.6%
CCCCc1ccc(C(=O)O)nc1 | CHO | 90.2%
NC1(C(=O)O)CCP(=O)(O)CC1 (centres undefined) | CHO | 113%

Switching to the query record.
Reported % viability of CHO cells for COc1cc(C(C)(C)CCCC(C)C)cc(OC)c1OC : what is it?
108%
